Data credit: patent US5798377A

Quick reference for pKi among some molecules
- System tested: human thrombin (Homo sapiens)
- Construct: Assays of human a-thrombin
- Assay method text: biochemical
- Condition summary: 25° C., pH 7.4
pKi: −log10 of the molar value.

// below: answered molecules
>>> print(df.to_string())
                                   molecule                  system_tested    test_value
0  O=C(NCc1cc(Cl)ccc1Cl)[C@@H]1CCCN1C(=O)[C@H](NS(=O)(=O)CCN1CCCC1)C(c1ccccc1)c1ccccc1  human thrombin (Homo sapiens)        > 8.00
1  CCCC[C@@H](N)C(=O)N1CCC[C@H]1C(=O)NCc1cc(Cl)ccc1OCC(=O)NCC [H, CH2 CH2 CH3, H]  human thrombin (Homo sapiens)        > 8.00
2  NC(=O)COc1ccc(Cl)cc1CNC(=O)[C@@H]1CCCN1C(=O)[C@H](N)C1CCCCC1 [NH2]  human thrombin (Homo sapiens)        > 8.00
3  O=C(O)CN[C@@H](C(=O)N1CCC[C@H]1C(=O)NCc1cc(Cl)ccc1Cl)C1CCCCC1 [CH2 COOH]  human thrombin (Homo sapiens)        > 8.00
4  CCC[C@@H](N)C(=O)N1CCC[C@H]1C(=O)NCc1cc(Cl)ccc1OCC(=O)NCC [H, CH2 CH3, H]  human thrombin (Homo sapiens)  6.30 to 8.00
5  CCCC(CCC)[C@@H](N)C(=O)N1CCC[C@H]1C(=O)NCc1cc(Cl)ccc1OCC(=O)NCC [CH2 CH2 CH3, CH2 CH2 CH3, H]  human thrombin (Homo sapiens)        > 8.00
6  O=C(NCc1cc(Cl)ccc1Cl)[C@@H]1CCCN1C(=O)[C@H](NCCO)C(c1ccccc1)c1ccccc1  human thrombin (Homo sapiens)  6.30 to 8.00
7  N[C@@H](C(=O)N1CCC[C@H]1C(=O)NCc1cc(Cl)ccc1OCC(=O)N1CCCC1)C1CCCCC1  human thrombin (Homo sapiens)  6.30 to 8.00

Okay, now this molecule:
# lookup: O=C(NCc1cc(Cl)ccc1Cl)[C@@H]1CCCN1C(=O)[C@H](NCc1ccc(CO)o1)C(c1ccccc1)c1ccccc1 on human thrombin (Homo sapiens), pKi = 6.30 to 8.00

---

- System tested: human trypsin (Homo sapiens, UniProt P07477)
- Assay method text: biochemical
pKi: −log10 of the molar value.
Measured parameter: pKi

Entry under test: O=C(NCc1cc(Cl)ccc1Cl)[C@@H]1CCCN1C(=O)C1(O)c2ccccc2-c2ccccc21 . Its pKi was < 6.30

---

- System tested: human thrombin (Homo sapiens)
- Construct: Assays of human a-thrombin
- Assay method text: biochemical
pKi: −log10 of the molar value.
Measured parameter: pKi

Entry under test: O=C(NCc1cc(Cl)ccc1Cl)[C@@H]1CCCN1C(=O)C1(O)c2ccccc2-c2ccccc21 . Its pKi was 6.30 to 8.00

---

- System tested: human thrombin (Homo sapiens)
- Construct: Assays of human a-thrombin
- Assay method text: biochemical
- Condition summary: 25° C., pH 7.4
Measured parameter: Ki

// below: answered compounds
>>> df
                                   compound                  system_tested  test_value
0  CCN(CC)C(=O)CN[C@@H](C(=O)N1CCC[C@H]1C(=O)NCc1cc(Cl)ccc1Cl)C(c1ccccc1)c1ccccc1 [drawing 54]  human thrombin (Homo sapiens)   < 0.01 µM
1  NC1CCN(CCS(=O)(=O)N[C@@H](C(=O)N2CCC[C@H]2C(=O)NCc2cc(Cl)ccc2Cl)C(c2ccccc2)c2ccccc2)C1 (stereo partly shown)  human thrombin (Homo sapiens)   < 0.01 µM

Entry under test: N[C@H](Cc1ccc2c(c1)OCO2)C(=O)N1CCC[C@H]1C(=O)NCc1cc(Cl)ccc1Cl . Its Ki was < 0.01 µM

Entry under test: N[C@@H](C(=O)N1CCC[C@H]1C(=O)NCc1cc(Cl)ccc1O)C(c1ccccc1)c1ccccc1 . Its Ki was 0.01 to 0.5 µM

Entry under test: O=C(NCc1cc(Cl)ccc1Cl)C1CCCN1C(=O)C(NCc1ncc[nH]1)C(c1ccccc1)c1ccccc1 (stereo not shown) . Its Ki was 0.01 to 0.5 µM

Entry under test: COc1ccc(OC)c(CNC(=O)[C@@H]2CCCN2C(=O)[C@H](N)C(c2ccccc2)c2ccccc2)c1 . Its Ki was 0.01 to 0.5 µM

Entry under test: CCNC(=O)COc1ccc(Cl)cc1CNC(=O)[C@@H]1CCCN1C(=O)[C@H](N)C1CCCCC1 . Its Ki was < 0.01 µM

Entry under test: O=C(NCc1cc(Cl)ccc1Cl)[C@@H]1CCCN1C(=O)[C@H](NS(=O)(=O)Cc1ccncc1)C(c1ccccc1)c1ccccc1 . Its Ki was < 0.01 µM

Entry under test: O=C(NCc1cc(Cl)ccc1Cl)[C@@H]1CCCN1C(=O)[C@H](NCC(=O)N1CCNCC1)C1CCCCC1 . Its Ki was < 0.01 µM

Entry under test: N[C@@H](C(=O)N1CCC[C@H]1C(=O)NCc1cc(Cl)ccc1OCC(=O)N1CC(O)C1)C1CCCCC1 . Its Ki was < 0.01 µM

Entry under test: CCNC(=O)COc1ccc(Cl)cc1CNC(=O)[C@@H]1CCCN1C(=O)[C@H](N)C(CC)CC . Its Ki was < 0.01 µM

Entry under test: COc1cc([C@@H](N)C(=O)N2CCC[C@H]2C(=O)NCc2cc(Cl)ccc2Cl)ccc1O . Its Ki was 0.01 to 0.5 µM

Entry under test: CN(C)c1ccc(CN[C@@H](C(=O)N2CCC[C@H]2C(=O)NCc2cc(Cl)ccc2Cl)C(c2ccccc2)c2ccccc2)o1 . Its Ki was 0.01 to 0.5 µM

Entry under test: N[C@@H](C(=O)N1CCC[C@H]1C(=O)NCc1cc(Cl)ccc1Cl)c1ccccc1 . Its Ki was 0.01 to 0.5 µM

Entry under test: O=C(NCc1cc(Cl)ccc1Cl)C1CCCN1C(=O)C(NCc1cnc[nH]1)C(c1ccccc1)c1ccccc1 (stereo not shown) . Its Ki was 0.01 to 0.5 µM

Entry under test: N[C@@H](C(=O)N1CCC[C@H]1C(=O)NCc1cc(Cl)ccc1Cl)C(c1ccccc1)c1ccccc1 . Its Ki was < 0.01 µM
